Sequence of the target: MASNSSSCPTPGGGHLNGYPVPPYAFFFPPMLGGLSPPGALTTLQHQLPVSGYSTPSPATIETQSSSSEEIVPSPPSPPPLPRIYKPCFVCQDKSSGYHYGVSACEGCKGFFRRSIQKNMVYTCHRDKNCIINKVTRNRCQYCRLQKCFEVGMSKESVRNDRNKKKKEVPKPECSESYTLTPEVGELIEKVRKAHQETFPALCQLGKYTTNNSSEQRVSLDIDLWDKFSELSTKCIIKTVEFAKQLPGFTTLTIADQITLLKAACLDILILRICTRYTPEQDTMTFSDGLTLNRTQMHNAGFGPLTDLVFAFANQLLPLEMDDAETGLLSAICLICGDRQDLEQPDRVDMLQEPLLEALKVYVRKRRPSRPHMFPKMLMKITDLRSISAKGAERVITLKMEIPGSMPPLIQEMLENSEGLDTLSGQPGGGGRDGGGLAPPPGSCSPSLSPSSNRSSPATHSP
measureName: Kd

get_value(item= CN(C1CC1)C1CCC(C)(C)c2cc(C#Cc3ccc(/C=C/C(=O)O)cc3)cc(C3CC3)c21 (stereo not shown) , readout=Kd) returns > 10 µM

---

- measuredTarget: RAR γ (Homo sapiens, UniProt P13631)
- Sequence (P13631 whole entry): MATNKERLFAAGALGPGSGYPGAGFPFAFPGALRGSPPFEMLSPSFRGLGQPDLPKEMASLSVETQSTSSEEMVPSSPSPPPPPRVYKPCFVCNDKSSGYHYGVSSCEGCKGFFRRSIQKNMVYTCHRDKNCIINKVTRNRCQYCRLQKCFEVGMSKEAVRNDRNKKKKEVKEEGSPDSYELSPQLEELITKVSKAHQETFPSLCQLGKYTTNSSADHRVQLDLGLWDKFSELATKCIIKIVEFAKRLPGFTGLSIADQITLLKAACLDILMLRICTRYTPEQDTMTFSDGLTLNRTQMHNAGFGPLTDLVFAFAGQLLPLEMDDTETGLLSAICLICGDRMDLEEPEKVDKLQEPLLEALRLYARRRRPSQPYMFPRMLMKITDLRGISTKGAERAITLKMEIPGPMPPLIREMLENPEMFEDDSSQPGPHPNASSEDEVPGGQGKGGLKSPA
pKd: −log10 of the molar value.
measureName: pKd

Short answer on RAR γ (Homo sapiens, UniProt P13631) for CN(C1CC1)C1CCC(C)(C)c2cc(C#Cc3ccc(/C=C/C(=O)O)cc3)cc(C3CC3)c21 (stereo not shown) , pKd: < 5.00

---

- measuredTarget: P450RAI-2 (Homo sapiens)
- Sequence (Q9NR63 whole entry): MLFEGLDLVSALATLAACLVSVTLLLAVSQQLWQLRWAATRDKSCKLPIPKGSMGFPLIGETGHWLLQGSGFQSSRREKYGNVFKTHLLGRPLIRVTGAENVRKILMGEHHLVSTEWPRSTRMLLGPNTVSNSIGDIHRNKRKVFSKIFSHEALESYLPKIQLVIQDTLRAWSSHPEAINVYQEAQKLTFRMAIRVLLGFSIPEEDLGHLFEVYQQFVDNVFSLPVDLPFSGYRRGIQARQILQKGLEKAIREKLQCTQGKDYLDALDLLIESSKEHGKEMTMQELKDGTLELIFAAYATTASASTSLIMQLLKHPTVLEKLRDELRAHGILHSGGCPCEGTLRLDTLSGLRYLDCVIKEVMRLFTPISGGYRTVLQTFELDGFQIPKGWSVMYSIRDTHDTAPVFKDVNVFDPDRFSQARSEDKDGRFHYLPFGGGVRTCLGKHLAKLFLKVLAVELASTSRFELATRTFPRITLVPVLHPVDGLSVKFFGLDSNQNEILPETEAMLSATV
- runDescription: P450RAI-2 cell-based inhibitor assay (inhibition of all-trans-RA metabolism)
- cond: P450RAI-2 stably transfected HeLa cells, [3H]-RA, 3 hours at 37° C.; read-out: P450RAI-2 Whole cell IC50
measureName: IC50

compound CC(C(=O)O)c1ccc(C#Cc2cc(C3CC3)c3c(c2)C(C)(C)CCC3N(C)C2CC2)cc1 (stereo not shown) [Compound 49] , IC50 observed: > 10 µM
